test system: Rattus norvegicus; assay: Anti-inflammatory activity carrageenan-induced paw edema in Rattus norvegicus albino (rat) at 9 mg/kg, ip administered 1 hr prior to carrageenan-induced measured 1 to 4 hr post challenge relative to control; assay type: functional; details: route intraperitoneal
Assign y to entries whose Activity meets or exceeds 60%; assign n to the rest.

1. Cc1ccc(NC(=O)Cn2nnc3ccccc3c2=O)cc1; y
2. Cc1cc(-c2ccccc2)n(C(=O)Cn2nnc3ccccc3c2=O)n1; n
3. O=c1c2ccccc2nnn1Cc1nnc(Nc2ccccc2)s1; y
4. O=c1c2ccccc2nnn1Cc1nnc(Nc2ccccc2)o1; y
5. O=C(Cn1nnc2ccccc2c1=O)N/N=c1/scc(-c2ccccc2)n1-c1ccccc1; n
6. Cc1cc(C)n(C(=O)Cn2nnc3ccccc3c2=O)n1; y
7. COc1ccccc1NC(=O)Cn1nnc2ccccc2c1=O; n
8. CC(=O)c1ccc(NC(=O)Cn2nnc3ccccc3c2=O)cc1; n
9. Cc1ccccc1NC(=O)Cn1nnc2ccccc2c1=O; y
10. Cc1ccc(-c2cc(C(F)(F)F)nn2-c2ccc(S(N)(=O)=O)cc2)cc1 [CELECOXIB]; n
11. Cc1ccc(C)n1NC(=O)Cn1nnc2ccccc2c1=O; y

Each recorded value in this set is attributed to ChEMBL document CHEMBL3045134.
